ADCC Max. % lysis for assorted binders
Target: T1, Human CD38 expressed on cells (Daudi, Raji, Jurkat, human PBMC/T cells, Tregs, HEK-293T transfectants) (human, UniProt P28907 1-300)
T1 sequence: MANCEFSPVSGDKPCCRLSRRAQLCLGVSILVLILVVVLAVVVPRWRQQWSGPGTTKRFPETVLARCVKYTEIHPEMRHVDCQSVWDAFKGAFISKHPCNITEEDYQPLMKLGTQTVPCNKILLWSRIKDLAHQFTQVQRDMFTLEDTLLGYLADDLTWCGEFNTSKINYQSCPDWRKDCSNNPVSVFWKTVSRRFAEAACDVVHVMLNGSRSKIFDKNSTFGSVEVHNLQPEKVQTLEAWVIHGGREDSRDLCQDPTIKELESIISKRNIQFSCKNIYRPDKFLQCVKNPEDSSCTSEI
Test: cell-based or functional assay
# output: bare number, implied unit %

binder	uom	ADCC Max. % lysis
aCD38-b-348-m1 (antibody, IgG1, V domains shown) VH: QLQLQESGPGLVKPSETLSLTCTVSGGSISSSDYYWGWIRQPPGKGLEWIGSIYYSGSTYYNPSLKSRVTISVDTSKNQFSLKLSSVTAADTAVYYCARGQYSSGWYAYPFDMWGQGTMVTVSS VL: EIVLTQSPGTLSLSPGERATLSCRASQSVRSSYLAWYQQKPGQAPRLLIYGASSRATGIPDRFSGSGSGTDFTLTISRLEPEDFAVYYCQQEANVYTFGGGTKVEIK	%	38
aCD38-b-348-m4 (antibody, IgG1, V domains shown) VH: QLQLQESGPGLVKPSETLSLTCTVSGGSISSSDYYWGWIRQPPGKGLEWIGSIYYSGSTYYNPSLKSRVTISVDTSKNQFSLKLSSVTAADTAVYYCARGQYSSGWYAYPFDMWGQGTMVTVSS VL: EIVLTQSPGTLSLSPGERATLSCRASQSVRSSYLAWYQQKPGQAPRLLIYGASSRATGIPDRFSGSGSGTDFTLTISRLEPEDFAVYYCQQEGNVYTFGGGTKVEIK	%	38

Name the recorded ADCC Max. % lysis of the item aCD38-b-348-m3 (antibody, IgG1, V domains shown) VH: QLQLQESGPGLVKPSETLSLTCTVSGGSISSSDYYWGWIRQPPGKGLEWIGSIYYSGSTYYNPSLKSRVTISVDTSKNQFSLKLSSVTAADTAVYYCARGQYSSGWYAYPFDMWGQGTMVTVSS VL: EIVLTQSPGTLSLSPGERATLSCRASQSVRSSYLAWYQQKPGQAPRLLIYGASSRATGIPDRFSGSGSGTDFTLTISRLEPEDFAVYYCQQDANVYTFGGGTKVEIK in your answer.
39
